System: biotinyl-Phe-oxazolone
PROTOCOL NOTES: self-aminoacylation, catalytic enhancement (BFO) (fold over background); higher = more active; k-Seq, kA / k0A0; sequences stand for … in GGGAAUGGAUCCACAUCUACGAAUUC…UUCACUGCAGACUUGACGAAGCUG
Variants at the floor of the assay were thinned out.
Consider the following sequences; for each one, report its self-aminoacylation.
Answer field: number only, no words.

Respond only with self-aminoacylation recorded for AUUCACAUGGGUCAUCGGGUG [Fam2.2 aminoacylation ribozyme variant]
70.4

Please give the documented self-aminoacylation of AGUCAACUAGGUCAUCGGGUG [Fam2.2 aminoacylation ribozyme variant]
49.9

Consider the sequence AUUCCCCUAGGUCUUCGGGUG [Fam2.2 aminoacylation ribozyme variant] . State its measured self-aminoacylation.
127

Quick one: give measured self-aminoacylation for GUUCACCUAGGUAAUCGGGUG [Fam2.2 aminoacylation ribozyme variant]
9.25

Retrieve self-aminoacylation measured for CCACGCUUCAACCAAUCGGUC [Fam1B.1 aminoacylation ribozyme variant] and print it.
65.2

Please look at this sequence and report its self-aminoacylation: AUUACCCUGGCCAUCUAGUGA [Fam2.1 aminoacylation ribozyme variant]
28.6

Specify reported self-aminoacylation for the sequence shown: CCACAAUUCAAGCAAUCGUUC [Fam1B.1 aminoacylation ribozyme variant]
1.06

The reported numbers originate from the supplement of paper PMC9233669.
